Recorded values, source ChEMBL document CHEMBL4825669.

# measured.on: Cannabinoid receptor 2 (Homo sapiens)
# Sequence (P34972 whole entry): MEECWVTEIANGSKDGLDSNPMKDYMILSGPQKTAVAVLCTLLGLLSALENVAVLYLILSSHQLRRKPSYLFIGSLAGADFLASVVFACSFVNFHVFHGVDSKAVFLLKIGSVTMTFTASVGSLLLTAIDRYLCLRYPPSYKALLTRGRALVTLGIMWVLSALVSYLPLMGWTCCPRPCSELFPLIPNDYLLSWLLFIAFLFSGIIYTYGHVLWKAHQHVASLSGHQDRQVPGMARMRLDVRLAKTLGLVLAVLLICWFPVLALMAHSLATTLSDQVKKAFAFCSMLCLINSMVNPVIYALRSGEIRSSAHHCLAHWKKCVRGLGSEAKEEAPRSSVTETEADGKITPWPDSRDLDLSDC
# experiment.description: Antagonist activity at human CB2 receptor expressed in CHO cell membrane assessed as reduction in CP55940-induced [35S]GTPgammaS binding by liquid scintillation spectrophotometry
pIC50: −log10 of the molar value.

sample.smiles | pIC50
CCCCCn1cc(C(=O)c2ccc3c(c2)CC(C)(C)C3)c2ccccc21 | 5.74

###

Activity for assorted molecules
# measured.on: UniProt:P21554
# experiment.description: Displacement of [3H]-CP55940 from human CB1 receptor expressed in CHO cells at 1 uM incubated for 90 mins by liquid scintillation spectrophotometry relative to control
# Type: cell-based
# conditions: filed as antagonist
recorded.metric: Activity (%)

sample.smiles | unit.of.measure | test.result
CC1(C)Cc2ccc(C(=O)c3cn(Cc4ccccc4)c4ccccc34)cc2C1 | % | 69.2
CC/C=C/Cn1cc(C(=O)c2ccc3c(c2)CC(C)(C)C3)c2ccccc21 | % | 84.2
CCCCCn1cc(C(=O)c2cccc3c2CC(C)(C)C3)c2ccccc21 | % | 85.7
CCC#CCn1cc(C(=O)c2ccc3c(c2)CC(C)(C)C3)c2ccccc21 | % | 55.6
C=CCCCn1cc(C(=O)c2ccc3c(c2)CC(C)(C)C3)c2ccccc21 | % | 80

###

# measured.on: UniProt:P34972
# experiment.description: Antagonist activity at human CB2 receptor expressed in CHO cell membrane assessed as stimulation of [35S]GTPgammaS binding at 10 uM by liquid scintillation spectrophotometry
# Format: functional, cell membranes
# Set-up: scale not given: the % may be the effect or the level left
# conditions: filed as antagonist
Activity for assorted compounds

sample.smiles | Activity, %
CCCCCn1cc(C(=O)c2cccc3c2CC(C)(C)C3)c2ccccc21 | 134
CCCCn1cc(C(=O)c2ccc3c(c2)CC(C)(C)C3)c2ccccc21 | 102
CC1(C)Cc2ccc(C(=O)c3cn(Cc4ccc(F)cc4)c4ccccc34)cc2C1 | 90
CCCCCCn1cc(C(=O)c2ccc3c(c2)CC(C)(C)C3)c2ccccc21 | 102
CCCn1cc(C(=O)c2ccc3c(c2)CC(C)(C)C3)c2ccccc21 | 99
C=CCCCn1cc(C(=O)c2ccc3c(c2)CC(C)(C)C3)c2ccccc21 | 92
CC/C=C/Cn1cc(C(=O)c2ccc3c(c2)CC(C)(C)C3)c2ccccc21 | 81
CC/C=C\Cn1cc(C(=O)c2ccc3c(c2)CC(C)(C)C3)c2ccccc21 | 106
CCCCCn1cc(C(=O)c2ccc3c(c2)CC(C)(C)C3)c2ccccc21 | 108
C#CCCCn1cc(C(=O)c2ccc3c(c2)CC(C)(C)C3)c2ccccc21 | 96
C#CCCCn1c(C)c(C(=O)c2ccc3c(c2)CC(C)(C)C3)c2ccccc21 | 121
CC1(C)Cc2ccc(C(=O)c3cn(Cc4ccccc4)c4ccccc34)cc2C1 | 87

###

# measured.on: Cannabinoid receptor 1 (Homo sapiens, UniProt P21554)
# Sequence (P21554 whole entry): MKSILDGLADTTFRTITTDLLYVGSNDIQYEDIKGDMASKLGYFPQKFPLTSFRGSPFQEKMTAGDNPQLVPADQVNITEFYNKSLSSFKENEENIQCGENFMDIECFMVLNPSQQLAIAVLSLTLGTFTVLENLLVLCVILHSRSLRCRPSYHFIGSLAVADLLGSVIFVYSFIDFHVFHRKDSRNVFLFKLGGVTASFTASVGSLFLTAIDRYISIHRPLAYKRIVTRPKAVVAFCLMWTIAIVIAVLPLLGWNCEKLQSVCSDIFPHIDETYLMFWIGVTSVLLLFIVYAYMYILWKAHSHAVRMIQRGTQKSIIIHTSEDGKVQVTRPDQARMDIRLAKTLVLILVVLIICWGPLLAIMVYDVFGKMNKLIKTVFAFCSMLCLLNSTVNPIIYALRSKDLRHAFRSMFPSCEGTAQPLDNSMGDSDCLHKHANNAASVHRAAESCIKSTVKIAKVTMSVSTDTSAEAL
# experiment.description: Binding affinity to human CB1 receptor assessed as free binding energy
# Assay type: cell-based
# conditions: CHO, filed as antagonist
deltaG for assorted compounds

sample.smiles | unit.of.measure | deltaG
CCCn1cc(C(=O)c2ccc3c(c2)CC(C)(C)C3)c2ccccc21 | kcal/mol | -7.68
CCCCCn1cc(C(=O)c2ccc3c(c2)CC(C)(C)C3)c2ccccc21 | kcal/mol | -10.2
CCCCCn1cc(C(=O)c2cccc3c2CC(C)(C)C3)c2ccccc21 | kcal/mol | -12.1

###

# measured.on: Cannabinoid receptor 2 (Homo sapiens)
# experiment.description: Displacement of [3H]-CP55940 from human CB2 receptor expressed in CHO cells at 1 uM incubated for 90 mins by liquid scintillation spectrophotometry relative to control
# Assay type: cell-based
# conditions: filed as antagonist
Kindly return satisfied if reported Activity is no lower than 80%; return not satisfied if it is lower.

sample.smiles | measured.on | category.label
CC(C)Cn1cc(C(=O)c2ccc3c(c2)CC(C)(C)C3)c2ccccc21 | Cannabinoid receptor 2 (Homo sapiens) | satisfied
CC/C=C\Cn1c(C)c(C(=O)c2ccc3c(c2)CC(C)(C)C3)c2ccccc21 | Cannabinoid receptor 2 (Homo sapiens) | satisfied
CC/C=C/Cn1c(C)c(C(=O)c2ccc3c(c2)CC(C)(C)C3)c2ccccc21 | Cannabinoid receptor 2 (Homo sapiens) | not satisfied
CCCCCCn1c(C)c(C(=O)c2ccc3c(c2)CC(C)(C)C3)c2ccccc21 | Cannabinoid receptor 2 (Homo sapiens) | not satisfied
CC/C=C\Cn1cc(C(=O)c2ccc3c(c2)CC(C)(C)C3)c2ccccc21 | Cannabinoid receptor 2 (Homo sapiens) | satisfied

###

Activity for assorted molecules
# measured.on: Cannabinoid receptor 1 (Homo sapiens, UniProt P21554)
# experiment.description: Displacement of [3H]-CP55940 from human CB1 receptor expressed in CHO cells at 1 uM incubated for 90 mins by liquid scintillation spectrophotometry relative to control
# Assay type: cell-based
# conditions: filed as antagonist

sample.smiles | Activity
CCCCCCn1cc(C(=O)c2ccc3c(c2)CC(C)(C)C3)c2ccccc21 | 79.1%
C#CCCCn1cc(C(=O)c2ccc3c(c2)CC(C)(C)C3)c2ccccc21 | 71%
CC(C)Cn1cc(C(=O)c2ccc3c(c2)CC(C)(C)C3)c2ccccc21 | 422%
C#CCn1c(C)c(C(=O)c2ccc3c(c2)CC(C)(C)C3)c2ccccc21 | 51.9%

###

# System: CHO
# experiment.description: Selectivity index, ratio of Ki for human CB1 receptor expressed in CHO cells to Ki for human CB2 receptor expressed in CHO cells
# Type: cell-based
Selectivity Index for assorted compounds
recorded.metric: Selectivity Index

sample.smiles | test.result
CCCn1cc(C(=O)c2ccc3c(c2)CC(C)(C)C3)c2ccccc21 | 19.7
CCCCCn1cc(C(=O)c2ccc3c(c2)CC(C)(C)C3)c2ccccc21 | 7.9
CCCCCn1cc(C(=O)c2cccc3ccccc23)c2ccccc21 | 3.1
CCCCCn1cc(C(=O)c2cccc3c2CC(C)(C)C3)c2ccccc21 | 1.1

###

# measured.on: UniProtKB P34972
# experiment.description: Displacement of [3H]-CP55940 from human CB2 receptor expressed in CHO cells at 1 uM incubated for 90 mins by liquid scintillation spectrophotometry relative to control
# Type: cell-based
# conditions: filed as antagonist

sample.smiles | measured.on | unit.of.measure | Activity
CCCCCCn1cc(C(=O)c2ccc3c(c2)CC(C)(C)C3)c2ccccc21 | UniProtKB P34972 | % | 83.6
C#CCCCn1c(C)c(C(=O)c2ccc3c(c2)CC(C)(C)C3)c2ccccc21 | UniProtKB P34972 | % | 93.1
CCCCCn1cc(C(=O)c2ccc3c(c2)CC(C)(C)C3)c2ccccc21 | UniProtKB P34972 | % | 99.8
CCC#CCn1cc(C(=O)c2ccc3c(c2)CC(C)(C)C3)c2ccccc21 | UniProtKB P34972 | % | 65.9
C=CCCCn1cc(C(=O)c2ccc3c(c2)CC(C)(C)C3)c2ccccc21 | UniProtKB P34972 | % | 95.2
CC/C=C/Cn1cc(C(=O)c2ccc3c(c2)CC(C)(C)C3)c2ccccc21 | UniProtKB P34972 | % | 86.9
C#CCn1c(C)c(C(=O)c2ccc3c(c2)CC(C)(C)C3)c2ccccc21 | UniProtKB P34972 | % | 63
CCCn1cc(C(=O)c2ccc3c(c2)CC(C)(C)C3)c2ccccc21 | UniProtKB P34972 | % | 90.5
Cc1c(C(=O)c2ccc3c(c2)CC(C)(C)C3)c2ccccc2n1Cc1ccccc1 | UniProtKB P34972 | % | 51.2
CCCCn1cc(C(=O)c2ccc3c(c2)CC(C)(C)C3)c2ccccc21 | UniProtKB P34972 | % | 92.9
CCCCn1c(C)c(C(=O)c2ccc3c(c2)CC(C)(C)C3)c2ccccc21 | UniProtKB P34972 | % | 85.4
C#CCn1cc(C(=O)c2ccc3c(c2)CC(C)(C)C3)c2ccccc21 | UniProtKB P34972 | % | 56
C#CCCCn1cc(C(=O)c2ccc3c(c2)CC(C)(C)C3)c2ccccc21 | UniProtKB P34972 | % | 92.8
CCCCCn1c(C)c(C(=O)c2ccc3c(c2)CC(C)(C)C3)c2ccccc21 | UniProtKB P34972 | % | 83.6
CCCn1c(C)c(C(=O)c2ccc3c(c2)CC(C)(C)C3)c2ccccc21 | UniProtKB P34972 | % | 73.9
C=CCCCn1c(C)c(C(=O)c2ccc3c(c2)CC(C)(C)C3)c2ccccc21 | UniProtKB P34972 | % | 86.4
CC1(C)Cc2ccc(C(=O)c3cn(Cc4ccccc4)c4ccccc34)cc2C1 | UniProtKB P34972 | % | 84.6
CC1(C)Cc2ccc(C(=O)c3cn(Cc4ccc(F)cc4)c4ccccc34)cc2C1 | UniProtKB P34972 | % | 92.3
CCCCCn1cc(C(=O)c2cccc3c2CC(C)(C)C3)c2ccccc21 | UniProtKB P34972 | % | 94.1
C=CCn1cc(C(=O)c2ccc3c(c2)CC(C)(C)C3)c2ccccc21 | UniProtKB P34972 | % | 60.6
